Recorded z-score of subpopulation abundance for the following compounds
Tested on: Saccharomyces cerevisiae BY4741 SeMeCo community
PROTOCOL TEXT: z-score of subpopulation abundance vs DMSO median, subpopulation auxotrophic for HM; higher = larger share of this subpopulation than in DMSO controls
CONDITION LABEL: 10 µM; 24 h; SM minimal medium; subpopulation (auxotrophy): HM
Counter-ions that a name gives are not always drawn.

COMPOUND	TGT	z-score of subpopulation abundance
COc1ccc2c(c1)c(CC(=O)OCC(=O)O)c(C)n2C(=O)c1ccc(Cl)cc1 [Acemetacin]	Saccharomyces cerevisiae BY4741 SeMeCo community	0.71
COc1cc(NS(=O)(=O)c2ccc(N)cc2)ncn1 [Sulfamonomethoxine]	Saccharomyces cerevisiae BY4741 SeMeCo community	-1.46
CC[C@@H]1/C=C(\C)C[C@H](C)C[C@H](OC)[C@H]2O[C@@](O)(C(=O)C(=O)N3CCCC[C@H]3C(=O)O[C@H](/C(C)=C/[C@@H]3CC[C@H](Cl)[C@H](OC)C3)[C@H](C)[C@@H](O)CC1=O)[C@H](C)C[C@@H]2OC [Pimecrolimus]	Saccharomyces cerevisiae BY4741 SeMeCo community	1.95
CC1CCc2cc(F)cc3c(=O)c(C(=O)O)cn1c23 (configuration not stated) [Flumequine]	Saccharomyces cerevisiae BY4741 SeMeCo community	-1.42
CCn1cc(C(=O)O)c(=O)c2cc(F)c(N3CCN(C)CC3)cc21 [Pefloxacin Mesylate Dihydrate]	Saccharomyces cerevisiae BY4741 SeMeCo community	0.71
CO[C@@]1(NC(=O)Cc2cccs2)C(=O)N2C(C(=O)O)=C(COC(N)=O)CS[C@@H]21 [Cefoxitin sodium]	Saccharomyces cerevisiae BY4741 SeMeCo community	0.04
N#Cc1ccc2[nH]cc(CCCCN3CCN(c4ccc5oc(C(N)=O)cc5c4)CC3)c2c1 [Vilazodone HCl]	Saccharomyces cerevisiae BY4741 SeMeCo community	0.6

====

Recorded z-score of subpopulation abundance for the following molecules
Test system: Saccharomyces cerevisiae BY4741 SeMeCo community
PROTOCOL TEXT: z-score of subpopulation abundance vs DMSO median, subpopulation auxotrophic for HLU; higher = larger share of this subpopulation than in DMSO controls
CONDITION LABEL: 10 µM; 24 h; SM minimal medium; subpopulation (auxotrophy): HLU

MOLECULE	TGT	z-score of subpopulation abundance
COc1ccc2cc([C@H](C)C(=O)O)ccc2c1 [Naproxen Sodium]	Saccharomyces cerevisiae BY4741 SeMeCo community	0
CCCCCCCCCC(=O)N[C@@H](Cc1c[nH]c2ccccc12)C(=O)N[C@H](CC(N)=O)C(=O)N[C@@H](CC(=O)O)C(=O)N[C@@H]1C(=O)NCC(=O)N[C@@H](CCCN)C(=O)N[C@@H](CC(=O)O)C(=O)N[C@H](C)C(=O)N[C@@H](CC(=O)O)C(=O)NCC(=O)N[C@H](CO)C(=O)N[C@@H]([C@H](C)CC(=O)O)C(=O)N[C@@H](CC(=O)c2ccccc2N)C(=O)O[C@@H]1C	Saccharomyces cerevisiae BY4741 SeMeCo community	1.3
COCC1=C(C(=O)OC(C)OC(=O)OC(C)C)N2C(=O)[C@@H](NC(=O)/C(=N\OC)c3csc(N)n3)[C@H]2SC1 (stereo not given in full)	Saccharomyces cerevisiae BY4741 SeMeCo community	0.57
O=C1Nc2ccccc2C1=O	Saccharomyces cerevisiae BY4741 SeMeCo community	0.06
N#CC(c1ccc(Cl)cc1)c1c(Cl)cc(-n2ncc(=O)[nH]c2=O)cc1Cl (stereo not given)	Saccharomyces cerevisiae BY4741 SeMeCo community	-0.02
